Biological target: Left-right determination factor 2 (Homo sapiens) (UniProt O00292)
Sequence (O00292 whole entry, looked up): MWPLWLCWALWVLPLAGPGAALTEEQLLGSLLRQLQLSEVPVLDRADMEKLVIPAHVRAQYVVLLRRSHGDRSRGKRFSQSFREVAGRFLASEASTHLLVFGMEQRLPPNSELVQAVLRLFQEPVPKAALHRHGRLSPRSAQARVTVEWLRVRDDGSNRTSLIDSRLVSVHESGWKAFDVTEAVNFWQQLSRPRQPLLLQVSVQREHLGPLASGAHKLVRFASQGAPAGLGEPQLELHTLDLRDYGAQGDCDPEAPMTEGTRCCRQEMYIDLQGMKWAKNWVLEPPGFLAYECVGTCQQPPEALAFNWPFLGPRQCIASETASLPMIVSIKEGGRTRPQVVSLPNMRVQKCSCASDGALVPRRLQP
Test: LEFTY2 binders on small-molecule microarrays, primary screen, biochemical, small-molecule microarray, 635 nm fluorescence scan (AID 1110)
Conditions: LEFTY2 binding, higher = more signal
propertyMeasured: composite z-score

> print(dat)
                                   compound  obsvalue
1  O=C1CCCC=C1C(O)CCOCc1ccccc1 (centres undefined)     0.408
2  O=C1C[C@@H](O)[C@@H](O)[C@@H]2[C@@H]3C(=O)N(c4ccc(F)cc4F)C(=O)[C@@H]3CC[C@@H]12     0.585
3  CC(C)CON=C1C[C@@H](O)[C@@H](O)[C@@H]2[C@@H]3C(=O)N(Cc4ccccc4)C(=O)[C@@H]3CC[C@@H]12     0.409
4  CCOC(=O)CCN1C(=O)[C@H]2[C@H]3[C@H](O)C=CC(=O)[C@@H]3CC[C@H]2C1=O      0.61

----------
Assay: modulators of S6 phosphorylation in cells, primary screen, cell-based, A549, cytoblot, luminescence, serum-stimulated (AID 1158);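 note: serum-stimulated A549 lung adenocarcinoma cells; signal is phosphorylated S6 detected by cytoblot immunostaining with HRP secondary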
Settings: A549 phospho-S6 cytoblot, 5 h, higher = more signal
propertyMeasured: z-score

> print(dat)
                               smilesstring  obsvalue
1  O=C1C[C@@H](O)[C@@H](O)[C@@H]2[C@@H]3C(=O)N(C4CCCCC4)C(=O)[C@@H]3CC[C@H]12     0.403
2  CO[C@H]([C@@H](C)[C@H](OC)c1ccccc1)[C@H](C)[C@@H](OC)[C@H](C)C(C)=O      -0.2
3  C=CC[C@@H]1C=C[C@H](ON=C(C)CCN2CCc3nc(CC)c(CC)cc3C2)[C@@H](CO)O1     -1.15

----------
Assay: small-molecule microarray binders of probe aShh, primary screen, biochemical, biotinylated probe, 635/667 nm fluorescence (AID 1114);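 note: probe is biotin-labelled aShh protein from a stem cell growth factor screen; measures binding of labelled protein to compounds printed on the slide; score merges feature fluorescence at 667 nm with signal-to-noise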
Settings: higher = more signal
Label fulfilled when composite z-score is at or above -0.1; otherwise label not fulfilled.

> print(dat)
                               smilesstring  categorylabel
1  COc1ccc([Si](C)(C)[C@@H]2[C@@H](CCO)O[C@]3(C(=O)N(Cc4ccc(NC(C)=O)cc4)c4ccccc43)[C@H]2C)cc1      fulfilled
2  C[C@H]1CC[C@@H](C(=O)O)N[C@@H]1c1ccc(C#CCN(C)C)cc1      fulfilled
3  CC(C)[C@H](NC(=O)OC(C)(C)C)[C@@H](O)CC(=O)OC(C)(C)C  not fulfilled
4      COC(=O)[C@H]1COC(c2ccc(OCCCO)cc2)=N1  not fulfilled
5  CO[C@@H]1COC(=O)[C@H](C)NC(=O)[C@@H](C)COC(=O)CCC[C@H]1C  not fulfilled

----------
Test system: Human papillomavirus type 1a E7 protein (residues 1-88)
Experiment: HPV1a E7 small-molecule binders, primary screen, biochemical, small-molecule microarray, residues 1-88, 635 nm (AID 1129)
Settings: small-molecule microarray binding, fluorescence 635 nm; higher = more signal

smilesString	composite z-score
COCCOC(=O)N1C(=O)[C@@]2(c3cc(C#CCNC(N)=O)ccc31)[C@H](c1ccccc1OCCO)N1[C@H](c3ccccc3)[C@H](c3ccccc3)OC(=O)[C@H]1[C@@H]2C(=O)N1CCN(c2ncccn2)CC1	0.74
CC(C)CON=C1C[C@@H](O)[C@@H](O)[C@@H]2[C@@H]3C(=O)N(C[C@@H]4CCCO4)C(=O)[C@@H]3CC[C@H]12	0.625
NC(=O)NCC#Cc1ccc2c(c1)[C@]1(C(=O)N2)[C@H](c2ccc(O)cc2)N2[C@H](c3ccccc3)[C@H](c3ccccc3)OC(=O)[C@H]2[C@@H]1C(=O)N1CCCCCCC1	0.564

----------
composite z-score for assorted compounds
Assay: small-molecule binders of probe aLefty1, primary screen, biochemical, small-molecule microarray, 635/667 nm fluorescence (AID 1153);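 note: score merges spot fluorescence with signal-to-noise ratio from the scanned slide images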
Conditions: higher = more signal
propertyMeasured: composite z-score

compound	propertyMeasured	obsValue
C=C(COC)/C(=C/C[C@H](OC(=O)c1ccncc1)c1ccc(CO)o1)c1cc(C(=O)OC)ccc1OC	composite z-score	0.188
COc1ccc(O[C@H]2C=C[C@@H](c3ccccc3)O[C@@H]2COC(=O)CCC(C)=NOCC[C@@H]2C=C[C@H](OC(C)=O)[C@@H](COC(C)=O)O2)cc1	composite z-score	-0.0176
O=C1C[C@@H](O)[C@@H](O)[C@@H]2[C@@H]3C(=O)N(c4cccc(Oc5ccccc5)c4)C(=O)[C@@H]3CC[C@@H]12	composite z-score	-0.0652
CC(CCN1CCc2nc(-c3ccccc3)c(-c3ccccc3)cc2C1)=NOC[C@@H](C)[C@H](OCc1ccccc1)C(C)C	composite z-score	-0.0464
COc1ccc(-c2nc3c(c4c2C[C@H](C)OC4)CN(CCC(C)C)CC3)cc1	composite z-score	0.0687
CCOC(=O)[C@H](Cc1ccccc1)NC(=O)CCC1CC(OC(=O)NCc2ccc3c(c2)OCO3)CC2(CCCC(COC(=O)NCc3cccc(C(F)(F)F)c3)O2)O1 (stereo partly drawn)	composite z-score	0.138
CCN1C(=O)[C@H]2[C@H]3[C@H](O)[C@H](O)CC(=NOC(C)CN4CCCCc5nc(C)c(C)cc54)[C@@H]3CC[C@H]2C1=O (stereo partly drawn)	composite z-score	-0.106
COc1ccccc1CN1C(=O)c2ccccc2[C@@]2(Cc3ccccc3N(C(C)C)C2=O)[C@@H]1c1ccc(CO)cc1	composite z-score	0.0371

----------
Assay: Plasmodium falciparum growth inhibition, primary screen, strain 3D7, DAPI fluorescence, 100 nL (AID 1184);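 note: parasites grown inside human red blood cells in medium with human serum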
Conditions: P. falciparum 3D7 growth, 3 d, higher = more signal
propertyMeasured: z-score

> print(dat)
                                   molecule  obsvalue
1  CCOC(=O)NN=C1C[C@@H](O)[C@@H](O)[C@@H]2[C@@H]3C(=O)N(C4CCCCC4)C(=O)[C@@H]3CC[C@H]12     -1.68
2  c1ccc(C2NCCc3c2[nH]c2ccccc32)cc1 (centres undefined)    -0.811
3  CCCCC(=C=CC[C@H](O)c1ccccc1OCCO)C[C@H](O)COCc1ccccc1     -1.21
4  COc1ccc(CCNC(=O)[C@@H]2c3ccccc3C(=O)N(c3ccc(C)cn3)[C@H]2c2ccc(CO)cc2)cc1    -0.183

----------
System: Fibrinogen (Alexa647-labelled)
Experiment: fibrinogen binders on compound microarrays, profiling panel, artefact control for SMM control-protein annotation, biochemical, small-molecule microarray, 635/667 nm fluorescence (AID 1131);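 note: z-score merges 667 nm fluorescence with per-spot signal-to-noise over triplicate slides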
Details: fibrinogen-A647 binding fluorescence, higher = more signal
propertyMeasured: composite z-score

> print(dat)
                                   molecule   propertymeasured  obsvalue
1  CCOC(=O)CCN1C(=O)[C@H]2[C@H]3[C@H](O)[C@H](O)CC(=NOC[C@@H](O)COCc4ccco4)[C@@H]3CC[C@H]2C1=O  composite z-score     0.825
2  CCCC[C@H]1OB(O)C[C@H]2C1=C(C)C[C@H]1C(=O)N(C)C(=O)[C@H]12  composite z-score     0.615
3  Cc1ccc(C2CC=C(C(=O)O)CN2S(=O)(=O)c2ccc(C)cc2)cc1 (stereo not drawn)  composite z-score     0.566

----------
Below, each entry is listed alongside its reported composite z-score.
Target: Neurogenic locus notch homolog protein 3 (Homo sapiens) (UniProt Q9UM47)
Sequence (Q9UM47 whole entry, looked up): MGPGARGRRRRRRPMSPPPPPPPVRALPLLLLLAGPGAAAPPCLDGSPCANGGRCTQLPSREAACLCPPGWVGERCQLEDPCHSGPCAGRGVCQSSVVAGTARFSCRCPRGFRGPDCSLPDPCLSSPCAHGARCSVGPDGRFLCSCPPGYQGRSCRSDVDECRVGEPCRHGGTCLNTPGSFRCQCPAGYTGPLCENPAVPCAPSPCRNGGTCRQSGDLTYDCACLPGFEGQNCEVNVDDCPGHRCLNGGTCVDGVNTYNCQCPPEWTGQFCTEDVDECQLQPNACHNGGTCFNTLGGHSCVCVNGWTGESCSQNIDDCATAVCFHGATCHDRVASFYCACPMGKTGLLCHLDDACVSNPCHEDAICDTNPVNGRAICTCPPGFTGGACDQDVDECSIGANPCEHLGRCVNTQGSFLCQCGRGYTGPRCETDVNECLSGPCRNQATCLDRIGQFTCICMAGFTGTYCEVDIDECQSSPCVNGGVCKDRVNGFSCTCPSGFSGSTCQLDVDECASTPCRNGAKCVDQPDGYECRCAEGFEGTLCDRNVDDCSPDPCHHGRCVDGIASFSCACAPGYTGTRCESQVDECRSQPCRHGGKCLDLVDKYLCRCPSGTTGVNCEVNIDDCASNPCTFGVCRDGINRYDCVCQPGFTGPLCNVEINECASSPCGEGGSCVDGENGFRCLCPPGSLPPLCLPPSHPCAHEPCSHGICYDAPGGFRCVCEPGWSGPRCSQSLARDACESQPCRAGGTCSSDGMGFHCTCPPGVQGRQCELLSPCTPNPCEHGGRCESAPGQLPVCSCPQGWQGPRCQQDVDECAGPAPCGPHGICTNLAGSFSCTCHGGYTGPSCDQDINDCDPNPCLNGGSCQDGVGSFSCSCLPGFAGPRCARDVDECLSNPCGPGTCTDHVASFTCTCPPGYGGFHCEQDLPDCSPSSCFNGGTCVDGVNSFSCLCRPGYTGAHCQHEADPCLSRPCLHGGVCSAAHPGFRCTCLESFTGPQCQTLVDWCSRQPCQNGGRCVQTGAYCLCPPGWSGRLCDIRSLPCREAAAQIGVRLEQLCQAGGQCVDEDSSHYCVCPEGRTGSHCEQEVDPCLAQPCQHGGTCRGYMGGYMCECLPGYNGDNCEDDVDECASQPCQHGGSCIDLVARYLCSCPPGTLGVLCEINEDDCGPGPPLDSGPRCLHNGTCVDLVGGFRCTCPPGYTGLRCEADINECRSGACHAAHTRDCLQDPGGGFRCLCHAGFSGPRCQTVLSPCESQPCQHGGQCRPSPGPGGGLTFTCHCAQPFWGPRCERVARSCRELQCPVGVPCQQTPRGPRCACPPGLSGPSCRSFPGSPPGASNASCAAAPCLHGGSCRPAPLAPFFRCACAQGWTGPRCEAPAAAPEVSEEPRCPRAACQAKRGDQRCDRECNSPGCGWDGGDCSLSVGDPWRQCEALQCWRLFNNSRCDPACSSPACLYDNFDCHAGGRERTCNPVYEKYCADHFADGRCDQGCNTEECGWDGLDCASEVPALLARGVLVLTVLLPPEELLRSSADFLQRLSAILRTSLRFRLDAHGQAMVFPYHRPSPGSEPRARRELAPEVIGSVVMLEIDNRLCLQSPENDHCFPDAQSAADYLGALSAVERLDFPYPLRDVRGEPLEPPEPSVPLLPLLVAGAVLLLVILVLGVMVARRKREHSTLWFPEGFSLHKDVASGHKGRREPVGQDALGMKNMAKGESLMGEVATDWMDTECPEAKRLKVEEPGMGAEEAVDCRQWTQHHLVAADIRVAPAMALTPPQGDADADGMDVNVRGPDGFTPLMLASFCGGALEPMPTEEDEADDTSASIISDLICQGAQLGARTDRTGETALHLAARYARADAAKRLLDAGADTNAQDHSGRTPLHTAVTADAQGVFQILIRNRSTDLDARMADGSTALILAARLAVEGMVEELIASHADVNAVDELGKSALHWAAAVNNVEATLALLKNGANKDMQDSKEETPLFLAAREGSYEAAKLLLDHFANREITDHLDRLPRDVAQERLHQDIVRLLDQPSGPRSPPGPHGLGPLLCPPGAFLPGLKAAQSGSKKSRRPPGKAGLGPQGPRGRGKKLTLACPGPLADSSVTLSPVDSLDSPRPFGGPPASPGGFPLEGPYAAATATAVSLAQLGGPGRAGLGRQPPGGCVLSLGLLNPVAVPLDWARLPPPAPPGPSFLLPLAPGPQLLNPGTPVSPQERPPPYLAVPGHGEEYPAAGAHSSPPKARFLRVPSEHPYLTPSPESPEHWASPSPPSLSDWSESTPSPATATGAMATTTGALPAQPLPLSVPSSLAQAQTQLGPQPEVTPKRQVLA
Test: NOTCH3 binders on small-molecule microarray, primary screen, biochemical, 635/667 nm fluorescence (AID 1096)
Conditions: NOTCH3 binding, 635 nm fluorescence, higher = more signal

compound	assayedSystem	composite z-score
O=C1[C@H]2[C@H]3[C@H](O)[C@H](O)CC(=NOC[C@@H](O)COCc4ccco4)[C@@H]3CC[C@H]2C(=O)N1c1ccc(F)cc1F	Neurogenic locus notch homolog protein 3 (Homo sapiens) (UniProt Q9UM47)	0.0986
CO[C@@H]1COC(=O)[C@H](C)NC(=O)[C@@H](C)COC(=O)CCC[C@H]1C	Neurogenic locus notch homolog protein 3 (Homo sapiens) (UniProt Q9UM47)	-0.0217
CO[C@@H]1COC(=O)CC=C[C@@H](C)[C@@H]2C=C[C@H](O)[C@@H](COC(=O)CCC[C@H]1C)O2	Neurogenic locus notch homolog protein 3 (Homo sapiens) (UniProt Q9UM47)	-0.076
CCN1C(=O)[C@H]2[C@H]3[C@H](O)[C@H](O)CC(=NOC(C)CN4CCCCc5nc(C)c(C)cc54)[C@@H]3CC[C@H]2C1=O (some centres not stated)	Neurogenic locus notch homolog protein 3 (Homo sapiens) (UniProt Q9UM47)	0.398
CO[C@H]1COC(=O)CC=C[C@H](C)[C@@H](NS(=O)(=O)c2ccc(C)cc2)COC(=O)CC=C[C@@H]1C	Neurogenic locus notch homolog protein 3 (Homo sapiens) (UniProt Q9UM47)	0.66
COc1ccc(O[C@H]2C=C[C@@H](c3ccccc3)O[C@@H]2COC(=O)N2CCCCC2)cc1	Neurogenic locus notch homolog protein 3 (Homo sapiens) (UniProt Q9UM47)	-1.08
O=C1O[C@@H](c2ccccc2)[C@@H](c2ccccc2)N2[C@@H](c3ccc(OCCO)cc3)[C@]3(C(=O)Nc4ccccc43)[C@@H](C(=O)N3CCN(c4ncccn4)CC3)[C@H]12	Neurogenic locus notch homolog protein 3 (Homo sapiens) (UniProt Q9UM47)	1.1
CC(CCN1CCc2nc(-c3ccccc3)c(-c3ccccc3)cc2C1)=NOC(C)CN1CCCCc2nc(C)c(C)cc21 (configuration not stated)	Neurogenic locus notch homolog protein 3 (Homo sapiens) (UniProt Q9UM47)	0.905
CCOC(=O)CCN1C(=O)[C@H]2[C@H]3[C@H](O)[C@H](O)CC(=NNC(=O)OCc4ccc(OC)cc4)[C@@H]3CC[C@H]2C1=O	Neurogenic locus notch homolog protein 3 (Homo sapiens) (UniProt Q9UM47)	1.08
COCCOC(=O)N1C(=O)[C@@]2(c3ccccc31)[C@H](C(N)=O)[C@H]1C(=O)O[C@H](c3ccccc3)[C@H](c3ccccc3)N1[C@@H]2c1ccccc1OCCO	Neurogenic locus notch homolog protein 3 (Homo sapiens) (UniProt Q9UM47)	1.12
C[C@H]1Cc2c(-c3ccccc3)nc3c(c2CO1)CN(CCOc1ccccc1)CC3	Neurogenic locus notch homolog protein 3 (Homo sapiens) (UniProt Q9UM47)	1.12
CCOC(=O)CCN1C(=O)[C@H]2[C@H]3[C@H](O)[C@H](O)CC(=NOCc4ccccc4)[C@@H]3CC[C@H]2C1=O	Neurogenic locus notch homolog protein 3 (Homo sapiens) (UniProt Q9UM47)	1
C[C@H](c1ccccc1)N1C(=O)[C@H]2[C@@H]3C(=CC[C@H]2C1=O)C(=O)[C@H]1O[C@H]1[C@H]3O	Neurogenic locus notch homolog protein 3 (Homo sapiens) (UniProt Q9UM47)	0.172
Cc1cc2c(nc1C)CCCN2CC(C)ON=C1[C@H]2CCn3c(=O)n(-c4ccccc4)c(=O)n3[C@H]2[C@H](O)[C@@H]2O[C@H]12 (some centres not stated)	Neurogenic locus notch homolog protein 3 (Homo sapiens) (UniProt Q9UM47)	1.01
CC(CCN1CCCCc2nc(C)c(C)cc21)=NOC(C)CN1CCCCc2nc(C)c(C)cc21 (configuration not stated)	Neurogenic locus notch homolog protein 3 (Homo sapiens) (UniProt Q9UM47)	1.07
CCOC(=O)[C@H](Cc1ccccc1)NC(=O)CCC1CC(OC(=O)NCCc2ccc(F)cc2)CC2(CCCC(COC(=O)NCC(c3ccccc3)c3ccccc3)O2)O1 (some centres not stated)	Neurogenic locus notch homolog protein 3 (Homo sapiens) (UniProt Q9UM47)	1.14
CC(C)NC(=O)[C@@H]1c2ccccc2C(=O)N(CC23CC4CC(CC(C4)C2)C3)[C@H]1c1ccc(CO)cc1	Neurogenic locus notch homolog protein 3 (Homo sapiens) (UniProt Q9UM47)	1.04
CN(C)C(=O)[C@@]1(Cc2ccccc2)N=C(c2ccc(OCCCO)cc2)O[C@H]1c1ccccc1CN=[N+]=[N-]	Neurogenic locus notch homolog protein 3 (Homo sapiens) (UniProt Q9UM47)	0.969
COC(=O)[C@@H]1CC[C@H](C)[C@@H](c2ccc(C)cc2)N1C(=O)c1ccc(C=NOC[C@@H](O)COCc2ccco2)cc1	Neurogenic locus notch homolog protein 3 (Homo sapiens) (UniProt Q9UM47)	-3.12
COc1ccc(O[C@H]2C=C[C@@H](c3ccccc3)O[C@@H]2COC(=O)CCC(C)=NO[C@H](C)c2cn([C@@H]3COC[C@H]3O)nn2)cc1	Neurogenic locus notch homolog protein 3 (Homo sapiens) (UniProt Q9UM47)	0.942
COCCCNC(=O)[C@]1(CCC(=O)OC(C)(C)C)N=C(c2ccc(OCCCO)cc2)O[C@@H]1c1ccccc1N=[N+]=[N-]	Neurogenic locus notch homolog protein 3 (Homo sapiens) (UniProt Q9UM47)	1.11
CCOC(=O)NN=C1C[C@@H](O)[C@@H](O)[C@@H]2[C@@H]3C(=O)N(C4CCCCC4)C(=O)[C@@H]3CC[C@H]12	Neurogenic locus notch homolog protein 3 (Homo sapiens) (UniProt Q9UM47)	0.213
